- TESTED_ON: human progesterone receptor (Homo sapiens)
- Construct: The cytosolic fractions of MCF-7 cells, which contain the human progesterone receptor, are used; endogenous in cells
- METHOD: Affinity for the human progesterone receptor ([3H]R 5020 displacement, MCF-7 cytosol)
- CONDITIONS_USED: 2 nM [3H]R 5020, MCF-7 cytosol, 20 hours, approx. 4° C.
ENDPOINT: pIC50
Scale explanation: pIC50 corresponds to minus log10 of a concentration expressed in moles per litre.

>>> df
                                smiles_text  measured_value
0  CC(=O)O[C@]1(C(C)=O)CC[C@H]2[C@@H]3C=C(Cl)C4=C[C@@H](O)CC[C@]4(C)[C@H]3CC[C@@]21C            7.74

Next:
Input: Give a short answer stating reported pIC50 for CC(=O)O[C@]1(C(C)=O)CC[C@H]2[C@@H]3C=C(Cl)C4=C[C@H](O)CC[C@]4(C)[C@H]3CC[C@@]21C .
Output: 7.41

###

- TESTED_ON: human androgen receptor (Homo sapiens, UniProt P10275, T878A)
- Construct: The cytosolic fractions of LNCaP cells, which contain the human androgen receptor, are used; endogenous in cells
- Sequence (P10275 1-920 T878A): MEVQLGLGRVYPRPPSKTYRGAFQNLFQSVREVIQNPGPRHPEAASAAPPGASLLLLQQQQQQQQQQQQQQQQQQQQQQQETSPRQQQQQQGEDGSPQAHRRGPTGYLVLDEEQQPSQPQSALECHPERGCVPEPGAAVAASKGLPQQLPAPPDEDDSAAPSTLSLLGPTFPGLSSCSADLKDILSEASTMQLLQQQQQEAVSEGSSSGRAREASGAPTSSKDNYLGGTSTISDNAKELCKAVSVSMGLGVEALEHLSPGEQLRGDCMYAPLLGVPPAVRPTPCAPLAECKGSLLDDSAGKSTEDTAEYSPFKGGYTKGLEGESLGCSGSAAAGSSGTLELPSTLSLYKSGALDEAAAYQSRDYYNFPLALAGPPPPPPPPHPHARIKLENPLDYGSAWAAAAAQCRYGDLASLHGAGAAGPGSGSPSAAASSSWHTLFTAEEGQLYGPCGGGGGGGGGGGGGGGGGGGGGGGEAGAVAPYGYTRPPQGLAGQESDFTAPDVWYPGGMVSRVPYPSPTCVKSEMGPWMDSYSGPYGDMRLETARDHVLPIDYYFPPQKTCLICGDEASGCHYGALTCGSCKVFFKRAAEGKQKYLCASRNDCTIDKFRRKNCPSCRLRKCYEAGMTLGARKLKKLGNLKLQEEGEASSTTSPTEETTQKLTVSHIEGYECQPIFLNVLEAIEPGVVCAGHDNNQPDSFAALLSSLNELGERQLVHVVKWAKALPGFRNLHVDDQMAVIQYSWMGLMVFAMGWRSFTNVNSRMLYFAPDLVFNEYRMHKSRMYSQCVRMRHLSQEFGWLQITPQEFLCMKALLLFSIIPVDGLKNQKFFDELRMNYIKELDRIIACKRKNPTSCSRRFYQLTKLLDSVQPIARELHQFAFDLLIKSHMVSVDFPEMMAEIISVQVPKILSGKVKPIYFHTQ
- METHOD: Affinity for the human androgen receptor ([3H]methyltrienolone displacement, LNCaP cytosol)
ENDPOINT: IC50 (nM)
Answer in nM, number only, no unit symbol.

In [3]: df
Out[3]:
                                   compound  measured_value
0  CC(=O)O[C@]1(C(C)=O)CC[C@H]2[C@@H]3C=C(Cl)C4=C[C@H](O)CC[C@]4(C)[C@H]3CC[C@@]21C [3-α-OH-CMA]             100

Next:
Input: Provide measured IC50 on human androgen receptor (Homo sapiens, UniProt P10275, T878A) for CC(=O)O[C@]1(C(C)=O)CC[C@H]2[C@@H]3C=C(Cl)C4=C[C@@H](O)CC[C@]4(C)[C@H]3CC[C@@]21C [3-β-OH-CMA] please.
Output: 25

###

- TESTED_ON: human androgen receptor (Homo sapiens, UniProt P10275, T878A)
- Construct: The cytosolic fractions of LNCaP cells, which contain the human androgen receptor, are used; endogenous in cells
- METHOD: Affinity for the human androgen receptor ([3H]methyltrienolone displacement, LNCaP cytosol)
ENDPOINT: Ki (nM)
Answer in nM, number only, no unit symbol.

>>> df
                                smiles_text  measured_value
0  CC(=O)O[C@]1(C(C)=O)CC[C@H]2[C@@H]3C=C(Cl)C4=C[C@H](O)CC[C@]4(C)[C@H]3CC[C@@]21C              83

Input: Give a short answer stating reported Ki for CC(=O)O[C@]1(C(C)=O)CC[C@H]2[C@@H]3C=C(Cl)C4=C[C@@H](O)CC[C@]4(C)[C@H]3CC[C@@]21C .
Output: 20

###

- TESTED_ON: human progesterone receptor (Homo sapiens, UniProt P06401)
- Construct: The cytosolic fractions of MCF-7 cells, which contain the human progesterone receptor, are used; endogenous in cells
- Sequence (P06401 1-933): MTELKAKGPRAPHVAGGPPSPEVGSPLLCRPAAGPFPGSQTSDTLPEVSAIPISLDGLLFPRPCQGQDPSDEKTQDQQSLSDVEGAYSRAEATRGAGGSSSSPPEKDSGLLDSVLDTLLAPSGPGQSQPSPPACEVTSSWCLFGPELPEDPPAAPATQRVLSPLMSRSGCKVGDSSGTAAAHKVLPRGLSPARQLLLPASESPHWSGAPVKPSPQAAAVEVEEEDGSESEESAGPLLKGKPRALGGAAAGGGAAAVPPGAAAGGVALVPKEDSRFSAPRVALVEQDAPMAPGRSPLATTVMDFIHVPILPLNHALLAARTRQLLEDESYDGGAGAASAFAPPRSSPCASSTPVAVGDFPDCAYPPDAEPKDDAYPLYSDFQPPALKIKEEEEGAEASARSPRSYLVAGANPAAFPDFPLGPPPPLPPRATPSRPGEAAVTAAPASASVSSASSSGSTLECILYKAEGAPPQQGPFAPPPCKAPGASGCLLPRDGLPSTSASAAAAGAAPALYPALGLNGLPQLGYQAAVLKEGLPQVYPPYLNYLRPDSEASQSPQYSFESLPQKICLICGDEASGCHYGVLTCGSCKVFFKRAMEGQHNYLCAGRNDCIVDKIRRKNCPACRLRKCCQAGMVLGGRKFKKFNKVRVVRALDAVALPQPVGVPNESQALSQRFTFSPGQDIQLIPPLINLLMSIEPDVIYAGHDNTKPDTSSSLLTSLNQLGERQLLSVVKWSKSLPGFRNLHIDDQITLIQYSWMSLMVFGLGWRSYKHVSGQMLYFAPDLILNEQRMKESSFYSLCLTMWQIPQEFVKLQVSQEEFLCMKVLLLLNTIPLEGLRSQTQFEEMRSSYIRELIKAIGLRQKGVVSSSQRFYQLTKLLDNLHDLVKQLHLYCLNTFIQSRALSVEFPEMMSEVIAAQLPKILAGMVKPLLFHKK
- METHOD: Affinity for the human progesterone receptor ([3H]R 5020 displacement, MCF-7 cytosol)
- CONDITIONS_USED: Cheng-Prusoff from IC50
ENDPOINT: Ki (nM)
Answer in nM, number only, no unit symbol.

>>> print(df.to_string())
                                smiles_text  endpoint  measured_value
0  CC(=O)O[C@]1(C(C)=O)CC[C@H]2[C@@H]3C=C(Cl)C4=C[C@H](O)CC[C@]4(C)[C@H]3CC[C@@]21C        Ki              13

Next:
Input: Give a short answer stating reported Ki for CC(=O)O[C@]1(C(C)=O)CC[C@H]2[C@@H]3C=C(Cl)C4=C[C@@H](O)CC[C@]4(C)[C@H]3CC[C@@]21C .
Output: 6
